- Test system: DU-4475
- Protocol text: normalised response (% of control), CellTiter-Glo; higher = more viable cells (100 = DMSO, 0 = benzethonium chloride kill control)
- Reported conditions: incubation time: 72 h
Measured attribute: normalised response
Put your answer as a value accompanied by its unit after it.

Look over these answered cases.
Compound	normalised response
CCNC(=O)c1noc(-c2cc(C(C)C)c(O)cc2O)c1-c1ccc(CN2CCOCC2)cc1 [NVP-AUY922] (0.1 nM)	102%
O=C(O)CNC(=O)c1c(O)c2ccccc2n(Cc2ccccc2)c1=O [IOX-2] (5000 nM)	99.3%
CN(Cc1cnc2nc(N)nc(N)c2n1)c1ccc(C(=O)N[C@@H](CCC(=O)O)C(=O)O)cc1 [Methotrexate] (5000 nM)	102%
CC(C)(C)c1nc(-c2cccc(NS(=O)(=O)c3c(F)cccc3F)c2F)c(-c2ccnc(N)n2)s1 [Dabrafenib] (2.5 nM)	104%
CO[C@@]12[C@H](COC(N)=O)C3=C(C(=O)C(C)=C(N)C3=O)N1C[C@@H]1N[C@@H]12 [Mitomycin C] (1000 nM)	96.9%
CC1(COc2ccc3c(c2)ncn3-c2ccc3cccc(N4CCC(N)CC4)c3n2)COC1 [Crenolanib] (1 nM)	108%

Hi! Can you tell me normalised response for each of these compounds?
1. Cn1cc(C2=C(c3cn(C4CCN(Cc5ccccn5)CC4)c4ccccc34)C(=O)NC2=O)c2ccccc21 [Enzastaurin] (1000 nM)
2. Cc1cn(-c2cc(NC(=O)c3ccc(C)c(Nc4nccc(-c5cccnc5)n4)c3)cc(C(F)(F)F)c2)cn1 [Nilotinib] (1000 nM)
3. CO[C@@H]1[C@H](N(C)C(=O)c2ccccc2)C[C@H]2O[C@]1(C)n1c3ccccc3c3c4c(c5c6ccccc6n2c5c31)C(=O)NC4 [Midostaurin] (10 nM)
4. CC(=O)[C@]1(O)Cc2c(O)c3c(c(O)c2[C@@H](O[C@H]2C[C@H](N)[C@H](O)[C@H](C)O2)C1)C(=O)c1ccccc1C3=O [Idarubicin] (1 nM)

**A:**
1. 106%
2. 97.7%
3. 97.5%
4. 101%
